Data origin, for the record: ChEMBL document CHEMBL1811866

system: Escherichia coli DH5[alpha]; test: Antagonist activity at Escherichia coli DH5alpha (pJN105L + pSC11) LasR assessed as inhibition of N-(3-oxo)-dodecanoyl HL-induced quorum sensing activation at 10 uM relative to untreated control; assay type: functional
# label = TRUE if inhibition >= 20% else FALSE

compound structure string | class label
O=C(Cc1cccc([N+](=O)[O-])c1)NC1CCCC1 | TRUE
CCOC(=O)CNC(=O)Cc1ccc(SC(F)(F)F)cc1 | TRUE
CCCCCCCCCC(=O)CC(=O)Nc1cc(-c2ccc(Cl)cc2)nn1C | FALSE
O=C(Cc1cccc([N+](=O)[O-])c1)Nc1ccccc1 | FALSE
CCCCCCCCCC(=O)CC(=O)NCc1ccc(OC)c(OC)c1 | FALSE
O=C(Cc1ccc(Br)cc1)NC1CCCC1 | FALSE
CCOC(=O)CNC(=O)CCc1ccc(OC)cc1 | TRUE
CCCCCCCCCC(=O)CC(=O)NCc1ccc(F)cc1 | FALSE
CCCCCCCCCC(=O)CC(=O)NCc1ccccc1F | TRUE
CCCCCCCCCC(=O)CC(=O)NCCC1=CCCCC1 | FALSE
CCCCCCCCCC(=O)CC(=O)NCc1cccc([N+](=O)[O-])c1 | TRUE
CCCCCCCCCC(=O)CC(=O)Nc1ccccc1 | TRUE
COc1ccc(CC(=O)NC2CCCC2)cc1 | TRUE
CCOC(=O)CNC(=O)CCc1cccc(I)c1 | TRUE
O=C(Cc1ccccc1)NC1CCCC1 | FALSE
CCOC(=O)CNC(=O)Cc1ccc(Br)cc1 | TRUE
CCCCCCCCCC(=O)CC(=O)NCCc1ccccc1 | FALSE
O=C(Cc1ccc(-c2ccccc2)cc1)NC1CCCC1 | FALSE
CCCCCCCCCC(=O)CC(=O)NCc1c(F)cccc1F | FALSE
CCOC(=O)CNC(=O)Cc1ccccc1 | TRUE
CCOC(=O)CNC(=O)Cc1cccc([N+](=O)[O-])c1 | TRUE
CCCCCCCCCC(=O)CC(=O)NCCC(c1ccccc1)c1ccccc1 | FALSE
CCCCCCCCCC(=O)CC(=O)N[C@@H](C)C(=O)OC | FALSE
CCCCCCCCCC(=O)CC(=O)NCc1cc(F)cc(F)c1 | TRUE
CCCCCCCCCC(=O)CC(=O)NCc1ccco1 | FALSE
CCOC(=O)CNC(=O)CCc1ccc(Cl)cc1 | TRUE
